Test: Testing of the NIR sensitizers in photoinitiator mixtures (exposure of thin coats with halogen lamp)
Settings: 0.5% by weight NIR sensitizer and 1.5% by weight boronate salt X in the paint base materials
Description: The two aforementioned paint base materials were admixed with 0.5% by weight of each NIR sensitizer and 1.5% by weight of the boronate salt X^− and the mixtures were stirred intensively. Thin coats (coat thickness approximately 50 μm) were produced with the resulting mixtures between two glass plates, using spacer sheets. These coats were exposed using a 250 W halogen lamp (distance approximately 15 cm) for 1 minute.
Endpoint: dissolution of the NIR sensitizer in the paint base material

> print(dat)
                                   molecule   reported.value
1  CCN1/C(=C/C=C2\CCCC(/C=C/C3=[N+](CC)c4ccc(C#N)cc4C3(C)C)=C2Cl)C(C)(C)c2cc(C#N)ccc21 [Compound A12]  fully dissolved
2  CCN1/C(=C/C=C2\CCCC(/C=C/C3=[N+](CC)c4ccc(C(F)(F)F)cc4C3(C)C)=C2Cl)C(C)(C)c2cc(C(F)(F)F)ccc21 [Compound A11]  fully dissolved
3  CN1\C(=C/C=C/C=C/C=C/C2=[N+](C)c3ccc(Cl)cc3C2(C)C)C(C)(C)c2cc(Cl)ccc21 [Compound A7]  fully dissolved
